Values compiled from patent US20130217702A1.

Examples of compounds with documented Ki follow.
target: human recombinant bradykinin B1 receptor (Homo sapiens, UniProt P46663); construct: host or cells: CHO cells, clone hB1-A5; assay: Human recombinant bradykinin B1 receptor competitive radioligand binding; conditions: hB1 expressed in CHO cells, [3H]-[Des-Arg10] Kallidin radioligand; read-out: B1 binding
Sequence (P46663 whole entry): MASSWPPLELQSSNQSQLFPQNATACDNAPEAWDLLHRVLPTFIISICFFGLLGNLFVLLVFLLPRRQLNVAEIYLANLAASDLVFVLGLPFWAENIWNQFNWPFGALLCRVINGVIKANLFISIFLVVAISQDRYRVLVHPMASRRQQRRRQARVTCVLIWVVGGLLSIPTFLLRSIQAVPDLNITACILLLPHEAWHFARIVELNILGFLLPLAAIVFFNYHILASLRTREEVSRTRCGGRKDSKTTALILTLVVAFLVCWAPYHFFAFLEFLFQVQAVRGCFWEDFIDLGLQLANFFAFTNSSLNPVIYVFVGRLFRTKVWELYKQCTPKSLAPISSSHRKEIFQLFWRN
Structures can show the parent of a compound that is named as a salt.

{"compound": "COc1cc(C(=O)NC2(C(=O)NCc3ccc(-n4c(-c5nnn(C)n5)c(Cl)c5ccccc54)cc3)CC2)on1 [Example 2]", "Ki": "< 20 nM"}
{"compound": "COC(=O)c1c(Cl)c2ccccc2n1-c1ccc(CNC(=O)C2(NC(=O)c3cc(OC)no3)CC2)c(F)c1 [Example 55]", "Ki": "< 20 nM"}
{"compound": "Cc1nc(-c2c(Cl)c3ccccc3n2-c2ccc(CNC(=O)C3(NC(=O)c4ccc(C(F)(F)F)c(F)c4)CC3)cc2)no1 [Example 93]", "Ki": "20 to 100 nM"}
{"compound": "Cc1nc(-c2cc3cc(Cl)ccc3n2-c2ccc(CNC(=O)C3(NC(=O)c4cncc(C(F)(F)F)c4)CC3)cc2)no1 [Example 128]", "Ki": "< 20 nM"}
{"compound": "COc1ccc2c(c1)c(Cl)c(-c1nc(C)no1)n2-c1ccc(CNC(=O)C2(NC(=O)c3cncc(C(F)(F)F)c3)CC2)cc1 [Example 50]", "Ki": "< 20 nM"}
{"compound": "COc1cc(C(=O)NC2(C(=O)NCc3ccc(-n4c(C#N)cc5cc(Cl)ccc54)cc3)CC2)on1 [Example 43]", "Ki": "< 20 nM"}
{"compound": "Cc1nc(-c2c(Cl)c3ccccc3n2-c2ccc(CNC(=O)C3(NC(=O)Cc4ccsc4)CC3)cc2)no1 [Example 147]", "Ki": "100 to 500 nM"}
{"compound": "Cc1nc(-c2c(Cl)c3ccccc3n2-c2ccc(CNC(=O)C3(NC(=O)c4cccc(I)c4)CC3)cc2)no1 [Example 176]", "Ki": "20 to 100 nM"}
{"compound": "Cn1nnc(-c2c(Cl)c3ccccc3n2-c2ccc(CNC(=O)C3(NC(=O)CC(F)(F)F)CC3)cc2)n1 [Example 29]", "Ki": "< 20 nM"}
{"compound": "Cc1nc(-c2c(Cl)c3ccccc3n2-c2ccc(CNC(=O)C3(NC(=O)CCC(C)C)CC3)cc2)no1 [Example 140]", "Ki": "< 20 nM"}
{"compound": "Cc1nc(-c2c(Cl)c3ccccc3n2-c2ccc(CNC(=O)C3(NC(=O)c4cccc(N)c4)CC3)cc2)no1 [Example 186, hydrochloride]", "Ki": "< 20 nM"}
{"compound": "Cc1noc(-c2c(Cl)c3ccccc3n2-c2ccc(CNC(=O)C3(NC(=O)c4cc(C5CC5)on4)CC3)cc2)n1 [Example 114]", "Ki": "< 20 nM"}
{"compound": "Cc1noc(-c2c(Cl)c3ccccc3n2-c2ccc(CNC(=O)C3(NC(=O)C(F)(F)F)CC3)cc2)n1 [Example 194]", "Ki": "< 20 nM"}
{"compound": "N#Cc1cc2ccccc2n1-c1ccc(CNC(=O)C2(NC(=O)c3cncc(C(F)(F)F)c3)CC2)cc1 [Example 84]", "Ki": "< 20 nM"}
